Assignment: determine reported apparent KD of MS2 coat protein for the given sequences.
# System: MS2 coat protein
# assay text: apparent KD of MS2 coat protein; designed switch direction (-1 OFF switch, 1 ON switch): -1; higher = weaker reporter binding
# measurement parameters: Eterna round: R95; input ligand: microRNA oligo, concentration not stated
Please state the figure in nM; there is no need to write the unit.

Entry under review: GAAAAGGUAGGAUAUACGAAAAAAAAGGGUAGAAAGAAAACACAUGAGGAUCACCCAUGUAGAAGGACCAAAAG [salish99_ex2_r3_017] (puzzle: Exclusion 2) . Reported apparent KD of MS2 coat protein?
27.3

Can you look up the measured apparent KD of MS2 coat protein of AGCAUGCUAGGAUAUACGGGACAUUAGGGUUCGUCGUAUGGACAUGAGGAUCACCCAUGUAGAAGGAGCGUGCA [Mat - Exclusion 2 - Mod of Hyphema - D93] (puzzle: Exclusion 2) for me?
19.9

Please look up its apparent KD of MS2 coat protein: CCAGGCUGUGUGAGGAUAUGCUGGUCCUUGGAUCAGCAGAAGGCACAUGAGGAUCACCCAUGUGAGGAGCUUGG [JL bmx4 3.28] (puzzle: Brourd's mod of Exclusion 4)
19.9

apparent KD of MS2 coat protein lookup needed for UUUUAGACAGGAUAUACAUUUUUUUAUUUAUUUAUAAUAUUACAUGAGGAUCACCCAUGUAGAAGGGUCAUUUU [My Design] (puzzle: Exclusion 2) , thanks.
37.1

Could you tell me which apparent KD of MS2 coat protein is on file for AGUACUUACUCGAUAGUGUUAGUACAAUAAGCUUGUGAAACAUGAGGAUCACCCAUGUCCUCAUUAGCUCGUCUUAU [salish99_TOv2_r3_1006] (puzzle: Sensor v3, turn-off variant 2) ?
758

###

# System: MS2 coat protein
# assay text: apparent KD of MS2 coat protein; designed switch direction (-1 OFF switch, 1 ON switch): -1; higher = weaker reporter binding
# measurement parameters: Eterna round: R95; input ligand: FMN 200 uM
measured metric: apparent KD of MS2 coat protein (nM)
Quick reminder: number only, in nM, skip the unit.

// lookup apparent KD of MS2 coat protein for AAGUACCGUCACGAUAGUGAUGGUACAACAAGCAAAUACACAUGAGGAUCACCCAUGUCCUCUUUUGCUCGUCUUGU [Sensor 3 - 0] (puzzle: Sensor v3, turn-off variant 2)
674

I'd like to know its apparent KD of MS2 coat protein. The sequence in question is AAGUACCGUCACGAUAGUGAUGGUACAACAAGCAGUGACACAUGAGGAUCACCCAUGUCCUCAAUUGCUCGUCUUAU [Sensor 3 - 76] (puzzle: Sensor v3, turn-off variant 2)
179

# input sequence: CAUAUAGUAGUCAGGAUAUGCGAAGAGAGAAGGAAGUAGAAGGGACAUGAGGAUCACCCAUGUAUAUUGUAAAG [EX-4 Malc #3] (puzzle: Brourd's mod of Exclusion 4) ; wanted: its apparent KD of MS2 coat protein
29.6

Sample UUUAAUUUUUUUUUUUUACAAGCUUUUUGCUCGUCUUAUACAUGAGGAUCACCCAUGUAGGUGGAGGAUAAAUUAUC [JMF 36] (puzzle: Sensor v3, turn-off variant 2) — what was its apparent KD of MS2 coat protein?
23.5

Recorded apparent KD of MS2 coat protein for GGUACUAACAGCUGACUGUUAGUACUGUAGGUUUGUGUUACAUGAGGAUCACCCAUGUCCUCAUAAGCUCGUCUUGU [JL-sv3-2.23 mat747 mod] (puzzle: Sensor v3, turn-off variant 2) , please?
382

Could you share which apparent KD of MS2 coat protein value was measured for AUGAGCAGACGGAGAUCCAACAUGAGGAUCACCCAUGUCUCAAAAGCUUUUUGCUCAUCUUAUUGUACCUUGGUGCG [Mat - Sensor v3 - turn-off var 1 - JL Mod - D18] (puzzle: Sensor v3, turn-off variant 1) ?
161

Query: apparent KD of MS2 coat protein; subject: AAGAAACAUGAGGAUCACCCAUGUGAGGAUAUGAACAAGAAAAGAAAAGAAAGAAGAAUCAGAAGGCACAAAGG [salish99-ex1_r3_047] (puzzle: Exclusion 1)
102

Entry under review: AGUACUAACACGAACGUGUUAGUACAAUAAGCUUGUGAAACAUGAGGAUCACCCAUGUCCUCAUAAGCUCGUCUUAU [salish99_TOv2_r3_034] (puzzle: Sensor v3, turn-off variant 2) . Reported apparent KD of MS2 coat protein?
17.9

Quick check: apparent KD of MS2 coat protein of AGUUGCGCAGGAUAUACAUGAGGAUCACCCAUGUGAGAGAAAUAAGUGAGGAAGAAAAGUAGAAGGGCGUGACA [Mat - Exclusion 3 - Mod of Salish D74] (puzzle: Exclusion 3) ?
236

Could you share which apparent KD of MS2 coat protein value was measured for CGUGACUCAGGAUAUCUAUAGUAUCACAUGAGGAUCACCCAUGUCCAGCGAAAGCUGGAGGGAGAAGGGAGUCACG [Fiskers Ex 5 - 42] (puzzle: Exclusion 5) ?
71.3

Recorded apparent KD of MS2 coat protein for CAGAAACAUGAGGAUCACCCAUGUGAGGAUAUGCGUACGUUGUCCGUAGGCGACGUGCGCAGAAGGCGCAAAGG [Mat - Mod of JL D85] (puzzle: Exclusion 1) , please?
115

Entry AAGAAACAUGAGGAUCACCCAUGUGAGGAUAUGAAAAAGAAAAGAAAAGAAAGAAGAAUCAGAAGGCACAAAGG [salish99-ex1_r3_019] (puzzle: Exclusion 1) has what apparent KD of MS2 coat protein?
40.5

Suppose we examine the sequence UAUUAACAAGUAAGAUCCUACAUGAGGAUCACCCAUGUGCUCGUCUUAUAAGGUACUGUGACGAAAGUCACGGUACC [Sensor 3, v1 - 72] (puzzle: Sensor v3, turn-off variant 1) ; what apparent KD of MS2 coat protein value has been reported?
37.6
